inhibition at 5 µg/mL by entry:
# System: HIV-1 patient isolate IH
# TEST METHOD NOTES: Inhibition of HIV-1 patient isolate IH in PBMCs
# Type: cell-based
# APPLIED CONDITIONS: Human immunodeficiency virus 1, PBMC, 288 h, 50% Human Serum, 5 μg/ml, read-out: % Inhibition (after day 12)

{"COMPOUND SMILES": "COc1cc(N=Nc2c(S(=O)(=O)O)cc3cc(S(=O)(=O)O)cc(NC(=O)c4cc(Cl)ccc4Cl)c3c2O)c(OC)cc1N=Nc1c(S(=O)(=O)O)cc2cc(S(=O)(=O)O)cc(NC(=O)c3ccc(Cl)c(Cl)c3)c2c1O", "inhibition at 5 µg/mL [%]": 0}
{"COMPOUND SMILES": "COc1cc(N=Nc2c(S(=O)(=O)O)cc3cc(S(=O)(=O)O)cc(NC(=O)c4ccc(Cl)cc4Cl)c3c2O)c(OC)cc1N=Nc1c(S(=O)(=O)O)cc2cc(S(=O)(=O)O)cc(NC(=O)c3ccc(Cl)cc3Cl)c2c1O", "inhibition at 5 µg/mL [%]": 0}
{"COMPOUND SMILES": "COc1cc(N=Nc2c(S(=O)(=O)O)cc3cc(S(=O)(=O)O)cc(NC(=O)c4cccc(Cl)c4Cl)c3c2O)c(OC)cc1N=Nc1c(S(=O)(=O)O)cc2cc(S(=O)(=O)O)cc(NC(=O)c3ccc(Cl)cc3Cl)c2c1O", "inhibition at 5 µg/mL [%]": 80}
{"COMPOUND SMILES": "COc1cc(N=Nc2c(S(=O)(=O)O)cc3cc(S(=O)(=O)O)cc(NC(=O)c4cccc(Cl)c4Cl)c3c2O)c(OC)cc1N=Nc1c(S(=O)(=O)O)cc2cc(S(=O)(=O)O)cc(NC(=O)c3ccccc3Cl)c2c1O", "inhibition at 5 µg/mL [%]": 23}

The measurements presented in this section are drawn from patent US5589510A.
